Each entry below carries its recorded Cmax.
# experimentDescription: Pharmacokinetics study in rat, IV
# Type: in vivo, SD rat
# conditionSummary: SD, plasma; Rat (10 mg/kg) single IV
# output: numeric value plus its unit

INSERT INTO results (compound, result) VALUES
  ('CC(C)(O/N=C(\C(=O)N[C@@H]1C(=O)N2C(C(=O)[O-])=C(/C=C/C[n+]3cnc(N)c(NCCNC(=O)c4cc(=O)c(O)cn4O)c3)CSC12)c1csc(N)n1)C(=O)O (some centres unmarked)', '196 µg/mL');

Now for another entry.
Field Cmax (entry C[C@H](O/N=C(\C(=O)N[C@@H]1C(=O)N2C(C(=O)[O-])=C(C[n+]3cnc(N)c(NCCNC(=O)c4cc(=O)c(O)cn4O)c3)CSC12)c1nc(N)sc1Cl)C(=O)O (some centres unmarked) ) reads 75.8 µg/mL
